Test: in vitro
Test settings: human, hek293t cells
viability at 48 h, 25 µM less than 80% is criterion met; viability at 48 h, 25 µM greater than or equal to 80% is criterion not met.

molecule=N#Cc1cccc2c1CC[C@H]2NC(=O)CCl category_label="criterion met"
molecule=CC(=O)Nc1ccc(C=C(C#N)C(=O)NCc2ccccc2)cc1 category_label="criterion not met"
molecule="CC(Cl)C(=O)N1CCN(S(=O)(=O)c2ccccc2)CC1 (stereo not drawn)" category_label="criterion not met"
molecule=Cc1cc(C=C(C#N)C(=O)Nc2ccccc2)c(C)n1C1CC1 category_label="criterion not met"

Please determine if CC(Cl)C(=O)NCCc1c[nH]c2ncccc12 (stereo not drawn) is below 80% in terms of viability at 48 h, 25 µM.
criterion not met

Please determine if `CC(C)NC(=O)C(C#N)=Cc1cnn(-c2ccc(Cl)cc2)c1` is below 80% in terms of viability at 48 h, 25 µM.
criterion met
